Ref: ChEMBL document CHEMBL4387729

- TEST SYSTEM: Alkaline phosphatase, tissue-nonspecific isozyme (Mus musculus) (UniProt P09242)
- Sequence (whole entry): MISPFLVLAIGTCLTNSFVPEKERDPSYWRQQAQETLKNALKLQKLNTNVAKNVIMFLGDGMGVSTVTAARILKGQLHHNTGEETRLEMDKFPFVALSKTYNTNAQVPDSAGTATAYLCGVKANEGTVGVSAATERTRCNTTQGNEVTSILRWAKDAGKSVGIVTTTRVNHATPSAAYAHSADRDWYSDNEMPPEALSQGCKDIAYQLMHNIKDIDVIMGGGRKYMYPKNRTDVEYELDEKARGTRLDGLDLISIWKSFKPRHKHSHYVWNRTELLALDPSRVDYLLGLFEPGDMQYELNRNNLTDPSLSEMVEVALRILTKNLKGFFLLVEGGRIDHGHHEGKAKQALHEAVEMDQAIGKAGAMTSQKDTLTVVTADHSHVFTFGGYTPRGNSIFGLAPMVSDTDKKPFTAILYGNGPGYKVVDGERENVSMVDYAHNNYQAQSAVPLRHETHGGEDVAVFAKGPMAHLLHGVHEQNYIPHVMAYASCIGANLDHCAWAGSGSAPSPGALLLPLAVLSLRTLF
- METHOD NOTES: Induction of alkaline phosphatase activity in mouse ST-2 cells after 4 days by spectrophotometric method
- Type: cell-based
Give EC200 for every item shown.

Answer with reported EC200 of NC(=O)c1sc2nccc(SC3CCCCC3)c2c1N > 1 µg/mL

Name the recorded EC200 of the compound listed here: C[C@H]1CC[C@@H](Oc2ccnc3sc(C(N)=O)c(N)c23)CC1 > 1 µg/mL

Find the measured EC200 of CN1CCC(Oc2ccnc3sc(C(N)=O)c(N)c23)CC1 and report it. > 1 µg/mL

Given the compound CC[C@H]1CC[C@H](Oc2ccnc3sc(C(N)=O)c(N)c23)CC1 , write its reported EC200. > 0.3 µg/mL

Name the recorded EC200 of the compound listed here: CC(C)c1ccc(Oc2ccnc3sc(C(N)=O)c(N)c23)cc1 > 0.3 µg/mL

Identify measured EC200 associated with C[C@@H]1CCC[C@H](Oc2ccnc3sc(C(N)=O)c(N)c23)C1 (relative stereo) > 1 µg/mL
